test system: HCT116 cells; test: Antiproliferation assay, Cell Titer Glo, 72 hours; format: cell-based; details: Homo sapiens, HCT-116, 72 h
As shown below, each of these compounds has a reported IC50 value.

- compound_structure: "CN(C)C/C=C/C(=O)Nc1cccc(S(=O)(=O)N2CCC(NC(=O)c3nscc3NC(=O)c3c(Cl)cccc3Cl)CC2)c1"
  assay_system: "HCT116 cells"
  qualifying_sign: "="
  IC50 [nM]: 3040
- compound_structure: "C=CC(=O)Nc1ccc(N2CC[C@@H](NC(=O)c3n[nH]cc3NC(=O)c3c(Cl)cccc3Cl)C2)cc1"
  assay_system: "HCT116 cells"
  qualifying_sign: "="
  IC50 [nM]: 64
- compound_structure: "CN(C)C/C=C/C(=O)Nc1cccc(S(=O)(=O)N2CCC(N(C)C(=O)c3n[nH]cc3NC(=O)c3c(Cl)cccc3Cl)CC2)c1"
  assay_system: "HCT116 cells"
  qualifying_sign: ">"
  IC50 [nM]: 10000
- compound_structure: "CN(C)C/C=C/C(=O)Nc1cccc(S(=O)(=O)N2CCC(NC(=O)c3c(NC(=O)c4c(Cl)cccc4Cl)cnn3C)CC2)c1"
  assay_system: "HCT116 cells"
  qualifying_sign: "="
  IC50 [nM]: 2860
- compound_structure: "CN(C)C/C=C/C(=O)Nc1ccc(CNC(=O)c2n[nH]cc2NC(=O)c2c(Cl)cccc2Cl)cc1"
  assay_system: "HCT116 cells"
  qualifying_sign: "="
  IC50 [nM]: 4700
- compound_structure: "CCC(=O)Nc1cccc(S(=O)(=O)N2CCC(NC(=O)c3n[nH]cc3NC(=O)c3c(Cl)cccc3Cl)CC2)c1"
  assay_system: "HCT116 cells"
  qualifying_sign: "="
  IC50 [nM]: 76
- compound_structure: "C=CC(=O)N1CCC(NC(=O)c2n[nH]cc2NC(=O)c2c(Cl)cccc2Cl)CC1"
  assay_system: "HCT116 cells"
  qualifying_sign: "="
  IC50 [nM]: 341
- compound_structure: "CN(C)C/C=C/C(=O)Nc1cccc(S(=O)(=O)N2CCC(NC(=O)c3nn(C)cc3NC(=O)c3c(Cl)cccc3Cl)CC2)c1"
  assay_system: "HCT116 cells"
  qualifying_sign: ">"
  IC50 [nM]: 10000
- compound_structure: "CN(C)C/C=C/C(=O)Nc1cccc(C(=O)N2CCC(NC(=O)c3n[nH]cc3NC(=O)c3c(Cl)cccc3Cl)CC2)c1"
  assay_system: "HCT116 cells"
  qualifying_sign: "="
  IC50 [nM]: 485
- compound_structure: "C=CC(=O)Nc1ccc(C(=O)N2CCC[C@@H](NC(=O)c3n[nH]cc3NC(=O)c3c(Cl)cccc3Cl)C2)cc1"
  assay_system: "HCT116 cells"
  qualifying_sign: ">"
  IC50 [nM]: 10000
- compound_structure: "Cc1cc(NC(=O)c2cccc(NC(=O)/C=C/CN(C)C)c2)ccc1NC(=O)c1n[nH]cc1NC(=O)c1c(Cl)cccc1Cl"
  assay_system: "HCT116 cells"
  qualifying_sign: "="
  IC50 [nM]: 320
- compound_structure: "C=CC(=O)Nc1ccc(CN2CCC(NC(=O)c3n[nH]cc3NC(=O)c3c(Cl)cccc3Cl)CC2)cc1"
  assay_system: "HCT116 cells"
  qualifying_sign: "<"
  IC50 [nM]: 0.1
- compound_structure: "CN(C)C/C=C/C(=O)Nc1ccc(S(=O)(=O)N2CC[C@H](NC(=O)c3n[nH]cc3NC(=O)c3c(Cl)cccc3Cl)C2)cc1"
  assay_system: "HCT116 cells"
  qualifying_sign: ">"
  IC50 [nM]: 10000
- compound_structure: "C=CC(=O)Nc1ccc(C(=O)N2CCC(NC(=O)c3n[nH]cc3NC(=O)c3c(Cl)cccc3Cl)CC2)cc1"
  assay_system: "HCT116 cells"
  qualifying_sign: "="
  IC50 [nM]: 42
- compound_structure: "C=CC(=O)Nc1cccc(NC(=O)c2n[nH]cc2NC(=O)c2c(Cl)cccc2Cl)c1"
  assay_system: "HCT116 cells"
  qualifying_sign: "="
  IC50 [nM]: 169
- compound_structure: "COc1cccc(F)c1C(=O)Nc1c[nH]nc1C(=O)NC1CCN(S(=O)(=O)c2cccc(NC(=O)/C=C/CN(C)C)c2)CC1"
  assay_system: "HCT116 cells"
  qualifying_sign: "="
  IC50 [nM]: 174
- compound_structure: "CC(C)c1[nH]nc(C(=O)NC2CCN(S(=O)(=O)c3cccc(NC(=O)/C=C/CN(C)C)c3)CC2)c1NC(=O)c1c(Cl)cccc1Cl"
  assay_system: "HCT116 cells"
  qualifying_sign: ">"
  IC50 [nM]: 10000
- compound_structure: "CN(C)C/C=C/C(=O)Nc1cccc(N2CC[C@H](NC(=O)c3n[nH]cc3NC(=O)c3c(Cl)cccc3Cl)C2)c1"
  assay_system: "HCT116 cells"
  qualifying_sign: ">"
  IC50 [nM]: 10000
- compound_structure: "CN(C)C/C=C/C(=O)Nc1ccc(N2CC[C@H](NC(=O)c3n[nH]cc3NC(=O)c3c(Cl)cccc3Cl)C2)cc1"
  assay_system: "HCT116 cells"
  qualifying_sign: ">"
  IC50 [nM]: 10000
- compound_structure: "C=CC(=O)Nc1ccc(C(=O)Nc2cccc(NC(=O)c3n[nH]cc3NC(=O)c3c(Cl)cccc3Cl)c2)cc1"
  assay_system: "HCT116 cells"
  qualifying_sign: "="
  IC50 [nM]: 6
- compound_structure: "C=CC(=O)Nc1cccc(S(=O)(=O)N2CC[C@H](NC(=O)c3n[nH]cc3NC(=O)c3c(Cl)cccc3Cl)C2)c1"
  assay_system: "HCT116 cells"
  qualifying_sign: "="
  IC50 [nM]: 6200
- compound_structure: "C=CC(=O)Nc1cccc(C(=O)Nc2ccc(NC(=O)c3n[nH]cc3NC(=O)c3c(Cl)cccc3Cl)cc2)c1"
  assay_system: "HCT116 cells"
  qualifying_sign: "="
  IC50 [nM]: 6
- compound_structure: "C=CC(=O)Nc1cccc(CN2CCC(NC(=O)c3n[nH]cc3NC(=O)c3c(Cl)cccc3OC)CC2)c1"
  assay_system: "HCT116 cells"
  qualifying_sign: "="
  IC50 [nM]: 9
- compound_structure: "COc1cc(OC)c(C(=O)Nc2c[nH]nc2C(=O)NC2CCN(S(=O)(=O)c3cccc(NC(=O)/C=C/CN(C)C)c3)CC2)c(OC)c1"
  assay_system: "HCT116 cells"
  qualifying_sign: ">"
  IC50 [nM]: 10000
- compound_structure: "C=CC(=O)Nc1cccc(S(=O)(=O)N2CCC(NC(=O)c3n[nH]cc3NC(=O)c3c(F)cccc3F)CC2)c1"
  assay_system: "HCT116 cells"
  qualifying_sign: "="
  IC50 [nM]: 114
- compound_structure: "CN(C)C/C=C/C(=O)Nc1ccc(C(=O)Nc2ccc(NC(=O)c3n[nH]cc3NC(=O)c3c(Cl)cccc3Cl)cc2)cc1"
  assay_system: "HCT116 cells"
  qualifying_sign: "="
  IC50 [nM]: 14
- compound_structure: "CN(C)C/C=C/C(=O)N1CCC[C@H](NC(=O)c2n[nH]cc2NC(=O)c2c(Cl)cccc2Cl)C1"
  assay_system: "HCT116 cells"
  qualifying_sign: "="
  IC50 [nM]: 1340

Source: patent US12187701B2
